ASSAY_PROCEDURE: Human pregnane X receptor (PXR) small molecule agonists, qHTS cell viability counter screen (AID 1346977); note: nearly all actives have a fitted effect of over 50% in size
CONDITION_INFO: PXR-Luc HepG2 viability, CellTiter-Fluor, 24 h; series mostly up to 92.4 µM
Inconclusive results are not listed. Active and inactive are the calls of the source. Calls come from the whole dose curve; as a rule, active = well fitted cell-killing curve with a large enough effect in the repeat runs; inconclusive = weak or mixed curves, or effect the other way; inactive = flat fitted curve, though single readings scatter.
Field 'call' accepts active, inactive

>  <COMPOUND>
CCCCCCCCCCCC(=O)N(C)CC(=O)O

>  <ASSIGNED_CATEGORY>
inactive

$$$$
>  <COMPOUND>
COC(=O)OC

>  <ASSIGNED_CATEGORY>
inactive

$$$$
>  <COMPOUND>
Cc1ccc(C(C)C)cc1

>  <ASSIGNED_CATEGORY>
inactive

$$$$
>  <COMPOUND>
Nc1cccc(C(F)(F)F)c1

>  <ASSIGNED_CATEGORY>
inactive

$$$$
>  <COMPOUND>
Cc1cc(CC(=O)O)n(C)c1C(=O)c1ccc(Cl)cc1

>  <ASSIGNED_CATEGORY>
inactive

$$$$
>  <COMPOUND>
Nc1cccc(N)n1

>  <ASSIGNED_CATEGORY>
inactive

$$$$
>  <COMPOUND>
COCN(COC)c1nc(N(COC)COC)nc(N(COC)COC)n1

>  <ASSIGNED_CATEGORY>
inactive

$$$$
>  <COMPOUND>
CC(=O)OC(C)(C)C1CC=C(C)CC1 (stereo not given)

>  <ASSIGNED_CATEGORY>
inactive

$$$$

Prompt: State the result this test recorded for C[Si](C)(C)N[Si](C)(C)C .
Completion: inactive

Prompt: State the result this test recorded for COC(=O)/C=C\C(=O)OC .
Completion: inactive

Prompt: State the result this test recorded for O=C(O)C1=NN(c2ccc(S(=O)(=O)O)cc2)C(=O)C1 .
Completion: inactive

Prompt: State the result this test recorded for C=CC(C)(C)C .
Completion: inactive

Prompt: State the result this test recorded for CC(=O)Nc1ccc(CC(=O)O)cc1 .
Completion: inactive

Prompt: State the result this test recorded for OB(O)O .
Completion: inactive

Prompt: State the result this test recorded for Cc1ccncc1 .
Completion: inactive

Prompt: State the result this test recorded for CCOC(=O)c1ccc(O)cc1 .
Completion: inactive

Just for reference, PubChem BioAssay (Tox21) is where these values come from.
